test system: Fusarium oxysporum; assay: Antifungal activity against Fusarium oxysporum assessed as mycelial growth inhibition at 1000 ppm at 28 +/-2 degC after 7 days by food poison technique; format: functional; conditions: 168 h, read-out: GI
We'd kindly ask you to apply these inhibition of growth at 1000 ppm classes: lower bin = under 70%, middle bin = from 70% up to 80%, upper bin = 80% and over

CCOP(=O)(OCC)O/C(COc1ccc([N+](=O)[O-])cc1)=N\N=C1/C(=O)Nc2ccccc21
lower bin

Q: Pick a category. Item: CCOP(=O)(OCC)O/C(=N\N=C1/C(=O)Nc2ccccc21)c1ccc(Cl)cc1
Result: middle bin

Q: Pick a category. Item: CCOP(=S)(OCC)O/C(COc1ccc(OP(=S)(OCC)OCC)cc1)=N\N=C1/C(=O)Nc2ccccc21
Result: upper bin

Q: Pick a category. Item: CCOP(=O)(OCC)O/C(=N\N=C1/C(=O)Nc2ccccc21)c1ccccc1P(=O)(OCC)OCC
Result: lower bin

Q: Pick a category. Item: CCOP(=S)(OCC)O/C(COc1ccccc1)=N\N=C1/C(=O)Nc2ccccc21
Result: middle bin

Q: Pick a category. Item: CCOP(=O)(OCC)O/C(=N\N=C1/C(=O)Nc2ccccc21)c1ccc([N+](=O)[O-])cc1
Result: lower bin

Q: Pick a category. Item: CCOP(=S)(OCC)O/C(=N\N=C1/C(=O)Nc2ccccc21)c1ccc(Cl)cc1
Result: upper bin
